Reported IC50 is given for each of the following compounds.
Biological target: DCN1 (DCUND1) protein PONY domain (Homo sapiens (Human))
Sequence (Q96GG9 60-248): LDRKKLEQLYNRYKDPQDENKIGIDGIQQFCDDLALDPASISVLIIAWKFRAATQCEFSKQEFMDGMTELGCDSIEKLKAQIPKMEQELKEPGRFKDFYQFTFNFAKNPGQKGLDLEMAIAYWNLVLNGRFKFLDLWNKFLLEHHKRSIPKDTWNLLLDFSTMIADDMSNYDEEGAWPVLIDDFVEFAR
Experiment: TR-FRET assay, DCN1 binding with FAM-labeled probe
Conditions: 24 hr after treatment with compound; read-out: TR FRET IC50 24 hr
Measurement Type: IC50

>>> value_measured("CCN1C(=O)[C@@H](NC(=O)C2CC(=O)N(Cc3ccccc3)C2)[C@@H](C2CC2)c2c(C(=O)N3[C@H](C#N)C[C@H]4C[C@H]43)nn(C3CCOCC3)c21 (stereo partly shown)")
"1 to 3 µM"
>>> value_measured("C=C(CC(=O)OC)C(=O)NCc1nn(-c2ccccc2)c2c1[C@H](c1ccc(F)cc1)[C@H](NC(=O)c1cccc(C(F)(F)F)c1)C(=O)N2CC (racemic) [Compound I-17]")
"1 to 3 µM"
>>> value_measured("CCN1C(=O)[C@@H](NC(=O)c2cccc(C(F)(F)F)c2)[C@@H](C2CC2)c2c(C(=O)N3C[C@@H](NC)C[C@H]3C#N)nn(C3CCOCC3)c21")
"0.2 to 1 µM"
>>> value_measured("CCN1C(=O)[C@@H](NC(=O)c2cccc(C(F)(F)F)c2)[C@@H](c2ccc(F)cc2)c2c(C(=O)N(C)[C@@H](C)C#N)nn(-c3ccccc3)c21 (single isomer, unassigned)")
"≤ 0.2 µM"
>>> value_measured("CCN1C(=O)[C@@H](NC(=O)c2cccc(C(F)(F)F)c2)[C@@H](c2ccc(F)cc2)c2c(C(=O)N(C)[C@@H](C#N)CCN(C)C)nn(C3CCOCC3)c21")
"≤ 0.2 µM"
>>> value_measured("CCN1C(=O)[C@@H](NC(=O)c2cccn(C3CC3)c2=O)[C@@H](C2CC2)c2c(C(=O)N3[C@H](C#N)C[C@H]4C[C@H]43)nn(C3CCOCC3)c21 [Compound I-625]")
"1 to 3 µM"
>>> value_measured("CCN1C(=O)[C@@H](NC(=O)c2cccc(C(F)(F)F)c2)[C@@H](C2CC2)c2c(C(=O)N(C)[C@H](C#N)CCN(C)C)nn(C3CCOCC3)c21")
"≤ 0.2 µM"
>>> value_measured("C=C(CN1CCC12COC2)C(=O)NCc1nn(-c2ccccc2)c2c1[C@H](c1ccc(F)cc1)[C@H](NC(=O)c1cccc(C(F)(F)F)c1)C(=O)N2CC")
"≤ 0.2 µM"
>>> value_measured("CCN1C(=O)[C@@H](NC(=O)c2cccc(C(F)(F)F)c2)[C@@H](c2ccc(F)cc2)c2c(C(C)(C)N(C)C#N)nn(-c3ccccc3)c21 (racemic)")
"1 to 3 µM"
>>> value_measured("CCN1C(=O)[C@@H](NC(=O)c2cccc(C(F)(F)F)c2)[C@@H](C2CC2)c2c(C(=O)N3C[C@H](OC)C[C@H]3C#N)nn(C3CCOCC3)c21")
"≤ 0.2 µM"
>>> value_measured("CCN1C(=O)[C@@H](NC(=O)c2cccc(C(F)(F)F)c2)[C@@H](c2ccc(F)cc2)c2c(C(=O)N3CCC[C@H]3C#N)nn(-c3cccc(OCCCN4CC5(COC5)C4)c3)c21 (stereo in doubt)")
"0.2 to 1 µM"
>>> value_measured("CCN1C(=O)[C@@H](NC(=O)c2cccc(C(F)(F)F)c2)[C@@H](C2CC2)c2c(C(=O)N(C)C(C)C#N)nn(C3CCOCC3)c21 (mixture of isomers)")
"≤ 0.2 µM"
>>> value_measured("CCN1C(=O)[C@@H](NC(=O)c2cccc(C(F)(F)F)c2)[C@@H](c2ccc(F)cc2)c2c(C(=O)N3CC[C@H](NC)[C@H]3C#N)nn(C3CCOCC3)c21 (mixture of isomers)")
"≤ 0.2 µM"
